- ASSAY_NAME: Liver microsome assay (metabolic stability)
- Type: in vitro ADME
- ASSAY_SETUP: male, CD-1, mouse, pooled liver microsomes, replicate 1, read-out: CLint (replicate 1)
Below, each entry is listed alongside its reported microsomal CLint at 2 μM.
Numbers only; they are read as µL/min/mg.

Solved cases below.
COMPOUND | READING_UNIT | microsomal CLint at 2 μM
Cc1n[nH]c2c1C(c1cc(C#CCCC(N)=O)cc(C(F)(F)F)c1)(C(C)C)C(C#N)=C(N)O2 (centres unmarked) [Compound 11] | µL/min/mg | 764
Cc1n[nH]c2c1C(c1cc(C#N)cc(C#CCCCO)c1)(C(C)C)C(C#N)=C(N)O2 (centres unmarked) [Compound 71] | µL/min/mg | 285
Cc1n[nH]c2c1C(c1cc(C#CCCCO)cc(CO)c1)(C(C)C)C(C#N)=C(N)O2 (centres unmarked) [Compound 74] | µL/min/mg | 68
Cc1n[nH]c2c1C(c1cc(C#CCCCO)cc(C(F)(F)F)c1)(C(C)C)C(C#N)=C(N)O2 (centres unmarked) [Compound 1] | µL/min/mg | 597

Next:
Fill in: microsomal CLint at 2 μM of Cc1n[nH]c2c1C(c1cc(Br)cc(C(F)(F)F)c1)(C(F)(F)F)C(C#N)=C(N)O2 (centres unmarked) is ___ 87.8
